Origin of values: paper PMC10977697

Test system: EpCAM
assay info: Spot phage ELISA, EpCAM
Format: binding, human
test parameters: spot phage ELISA signal-to-noise on EpCAM
Where no end group is shown, it is not given here.
measurement name: S/N
Give bare numbers.

>  <record sequence>
GCPRILMRCKQDSDCQLVCLFPGLLVG (disulfide (positions not given here)) [EpCAM EET I-II 36]

>  <system under test>
EpCAM

>  <S/N>
14.3

$$$$
>  <record sequence>
GCIKNNLRCKQDSDCLAGCVCWYDAACG (disulfide (positions not given here)) [EpCAM EET I-II 32]

>  <system under test>
EpCAM

>  <S/N>
16.9

$$$$
>  <record sequence>
GCRNTMVRCKQDSDCLAGCVCYFDPSCG (disulfide (positions not given here)) [EpCAM EET I-II 33]

>  <system under test>
EpCAM

>  <S/N>
15.8

$$$$
>  <record sequence>
GPTQSHYGQCGGFGYQGAVVCSGTTCQFTHLGHSQCLPGAS (disulfide (positions not given here)) [EpCAM CBD 88]

>  <system under test>
EpCAM

>  <S/N>
5.9

$$$$

Would you be so kind as to report S/N for each listed record?
1. GCPRILMRCKQDSDCLALCCNERNICG (disulfide (positions not given here)) [EpCAM EET I-II 18]
2. GPTQSVIGPCGGIGYVGGRYCSGTTCQMPTSYRSQCLPGAS (disulfide (positions not given here)) [EpCAM CBD 35]
3. GPTQSHYGQCGGSGYKGAIKCSGTTCQLVTVHVSQCLPGAS (disulfide (positions not given here)) [EpCAM CBD 46]
4. GPTQSHYGQCGGDGYTGMIRCSGTTCQFVAKKHSQCLPGAS (disulfide (positions not given here)) [EpCAM CBD 40]
5. GPTQSHYGQCGGRGYVGALMCSGTTCQYIAKPVSQCLPGAS (disulfide (positions not given here)) [EpCAM CBD 4]
6. GPTQSHYGQCGGRGYPGRMVCSGTTCQYVAPMISQCLPGAS (disulfide (positions not given here)) [EpCAM CBD 27]
7. GPTQSHYGQCGGRGYKGAIVCSGTTCQVAQMYQSQCLPGAS (disulfide (positions not given here)) [EpCAM CBD 86]

Outgoing:
19.7
14.4
10.7
11.8
23.5
16.6
6.6

Take each entry in turn and give its S/N.
1. GPTQSHYGQCGGMGYHGFIVCSGTTCQHMMPTTSQCLPGAS (disulfide (positions not given here)) [EpCAM CBD 12]
2. GCKNDKIRCKQDSDCLAGCVCWEDPSCG (disulfide (positions not given here)) [EpCAM EET I-II 22]
3. GPTQSHYGQCGGKGYQGAMKCSGTTCQYIFFPTSQCLPGAS (disulfide (positions not given here)) [EpCAM CBD 64]
4. GPTQSHYGQCGGRGYWGMAICSGTTCQAQTRMISQCLPGAS (disulfide (positions not given here)) [EpCAM CBD 42]

Outgoing:
1: 19.8; 2: 18.9; 3: 8.6; 4: 11.4

Dear reader, for each entry below, please note its S/N.
1. GPTQSHYGQCGGPGYTGVIKCSGTTCQFVNLPRSQCLPGAS (disulfide (positions not given here)) [EpCAM CBD 51]
2. GPTQSHYGQCGGLGYHGAIMCSGTTCQYAPIVTSQCLPGAS (disulfide (positions not given here)) [EpCAM CBD 52]
3. GPTQSHYGQCGGYGYQGMMMCSGTTCQYVRHKVSQCLPGAS (disulfide (positions not given here)) [EpCAM CBD 30]
4. GPTQSHYGQCGGEGYKGAIVCSGTTCQQTKLQGSQCLPGAS (disulfide (positions not given here)) [EpCAM CBD 75]
5. GPTQSHYGQCGGKGYPGYIVCSGTTCQMVNQSHSQCLPGAS (disulfide (positions not given here)) [EpCAM CBD 55]

Outgoing:
[9.8, 9.8, 15.6, 7.7, 9.4]
